Field: IC50. Provide a value for each of the molecules that follow.
measurementTarget: BRD4 BD2 (Homo sapiens)
testMethodNotes: AlphaScreen binding assay, BRD4 Bromodomain 2

Consider the molecule shown here: "CC(C)OC(=O)N1C[C@H](C)N(C(=O)C2CC2)c2ccc(-c3cnn(CC#N)c3)cc21" What is its recorded IC50?
> 500 nM

Consider the molecule shown here: "CC(C)OC(=O)N1C[C@H](C)N(C(=O)C2CC2)c2ccc(-c3cnn(CC(=O)O)c3)cc21" What is its recorded IC50?
> 500 nM

Consider the molecule shown here: "CC(=O)N1c2ccc(-c3ccc(OC(F)(F)F)cc3)cc2N(C(=O)c2ccco2)C[C@@H]1C" What is its recorded IC50?
50 to 500 nM

Consider the molecule shown here: "CC(=O)N1c2ccc(-c3cccc(S(N)(=O)=O)c3)cc2N(C(=O)OC(C)C)C[C@@H]1C" What is its recorded IC50?
50 to 500 nM

* * *

measurementTarget: BRD4 BD2 (Homo sapiens, UniProt O60885)
testMethodNotes: AlphaScreen binding assay, BRD4 Bromodomain 2
pIC50: −log10 of the molar value.
readoutName: pIC50

Missing value: pIC50, BRD4 BD2 (Homo sapiens, UniProt O60885), entry "CC(=O)N1c2ccc(-c3ccc(S(C)(=O)=O)cc3)cc2N(c2ncccn2)C[C@@H]1C" . Fill in?
< 6.30

Missing value: pIC50, BRD4 BD2 (Homo sapiens, UniProt O60885), entry "CC(=O)N1c2ccccc2N(C(=O)Cc2cccc(C(F)(F)F)c2)C[C@@H]1C" . Fill in?
< 6.30

Missing value: pIC50, BRD4 BD2 (Homo sapiens, UniProt O60885), entry "CC(=O)N1c2ccc(-c3cnn(C4CC4)c3)cc2N(C(=O)Oc2ncccc2C(F)(F)F)C[C@@H]1C" . Fill in?
< 6.30

Missing value: pIC50, BRD4 BD2 (Homo sapiens, UniProt O60885), entry "CC(=O)N1c2ccc(-c3ccc(N4CCS(=O)(=O)CC4)cc3)cc2N(C(=O)C2CC2)C[C@@H]1C" . Fill in?
> 7.30

Missing value: pIC50, BRD4 BD2 (Homo sapiens, UniProt O60885), entry "CC(=O)N1c2ccccc2N(S(=O)(=O)c2cn(C)cn2)C[C@@H]1C" . Fill in?
< 6.30

Missing value: pIC50, BRD4 BD2 (Homo sapiens, UniProt O60885), entry "CC(=O)N1c2ccc(-c3ccc(S(=O)(=O)NC4CC4)cc3)cc2N(C(=O)c2ccco2)C[C@@H]1C" . Fill in?
> 7.30

Missing value: pIC50, BRD4 BD2 (Homo sapiens, UniProt O60885), entry "CC(=O)N1c2ccc(-c3ccc(S(=O)(=O)NC(C)(C)C)cc3)cc2N(C(=O)OC2CCOCC2)C[C@@H]1C" . Fill in?
6.30 to 7.30

* * *

measurementTarget: BRD4 BD1 (Homo sapiens, UniProt O60885)
testMethodNotes: AlphaScreen binding assay, BRD4 Bromodomain 1
pIC50: −log10 of the molar value.
readoutName: pIC50

Consider the compound shown here: "CC(=O)N1c2ccc(-c3ccc(S(=O)(=O)CC(C)C)cc3)cc2N(C(=O)OC(C)C)C[C@@H]1C" What is its recorded pIC50?
5.00 to 6.00

Consider the compound shown here: "CC(=O)N1c2ccc(-c3cnn(C4CC4)c3)cc2N(c2nn(C)c3cc(F)ccc23)C[C@@H]1C" What is its recorded pIC50?
6.00 to 7.00

Consider the compound shown here: "CC(=O)N1c2ccc(-c3cnn(CCO)c3)cc2N(C(=O)N(C)C(C)C)C[C@@H]1C" What is its recorded pIC50?
< 5.00

Consider the compound shown here: "CC(=O)N1c2ccc(-c3cnn(CC(F)(F)F)c3)cc2N(C(=O)OC(C)C)C[C@@H]1C" What is its recorded pIC50?
> 7.00

Consider the compound shown here: "CC(=O)N1c2ccc(-c3ccc(S(C)(=O)=O)cc3)cc2N(C(=O)OC2CCCCC2)C[C@@H]1C" What is its recorded pIC50?
6.00 to 7.00

Consider the compound shown here: "CC(=O)N1c2ccc(-c3ccc(N)nc3)cc2N(C(=O)c2ccco2)C[C@@H]1C" What is its recorded pIC50?
5.00 to 6.00

Consider the compound shown here: "CC(=O)N1c2ccc(-c3ccc(S(C)(=O)=O)cc3)cc2N(C(=O)Oc2ccc(F)cc2)C[C@@H]1C" What is its recorded pIC50?
6.00 to 7.00

Consider the compound shown here: "COC(=O)N1c2ccc(-c3ccc(N(C)S(C)(=O)=O)cc3)cc2N(C(=O)Oc2ccccn2)C[C@@H]1C" What is its recorded pIC50?
5.00 to 6.00

Consider the compound shown here: "C[C@H]1CN(C(=O)c2ccco2)c2cc(-c3ccc(S(C)(=O)=O)cc3)ccc2N1C(=O)C1CC1" What is its recorded pIC50?
6.00 to 7.00

Consider the compound shown here: "CC(=O)N1c2ccc(-c3cnn(C4CC4)c3)cc2N(C(=O)Oc2ccccc2C)C[C@@H]1C" What is its recorded pIC50?
6.00 to 7.00

Consider the compound shown here: "COC(=O)N1c2ccc(-c3cnn(CCN4CCOCC4)c3)cc2N(C(=O)OC(C)C)C[C@@H]1C" What is its recorded pIC50?
6.00 to 7.00

Consider the compound shown here: "COC(=O)N1c2ccc(-c3cnn(CC4CCC4)c3)cc2N(C(=O)OC(C)C)C[C@@H]1C" What is its recorded pIC50?
5.00 to 6.00

Consider the compound shown here: "CC(=O)N1c2ccc(-c3ccc(S(=O)(=O)CC4CC4)cc3)cc2N(C(=O)OC2CCOCC2)C[C@@H]1C" What is its recorded pIC50?
6.00 to 7.00

Consider the compound shown here: "CC(=O)N1c2ccc(-c3ccc(S(C)(=O)=O)c(F)c3)cc2N(C(=O)C2CC2)C[C@@H]1C" What is its recorded pIC50?
5.00 to 6.00

Consider the compound shown here: "CC(=O)N1c2ccc(-c3ccc(S(C)(=O)=O)cc3)cc2N(C(=O)Nc2ccccc2C)C[C@@H]1C" What is its recorded pIC50?
< 5.00

Consider the compound shown here: "C[C@H]1CN(C(=O)C2CC2)c2cc(-c3ccc(S(=O)(=O)CCN)cc3)ccc2N1C(=O)C1CC1" What is its recorded pIC50?
6.00 to 7.00

Consider the compound shown here: "CC(=O)N1c2ccc(-c3ccc(C(=O)O)cc3)cc2N(C(=O)c2ccco2)C[C@@H]1C" What is its recorded pIC50?
5.00 to 6.00

Consider the compound shown here: "COc1ccc(C(=O)N2C[C@H](C)N(C(C)=O)c3ccc(-c4ccc(S(C)(=O)=O)cc4)cc32)cc1" What is its recorded pIC50?
5.00 to 6.00

Consider the compound shown here: "COC(=O)N1c2ccc(-c3ccc(C(=O)N4CC[C@H](O)C4)cc3)cc2N(C(=O)OC(C)C)C[C@@H]1C" What is its recorded pIC50?
6.00 to 7.00

Consider the compound shown here: "CC(=O)N1c2ccc(-c3cnn(C)c3C)cc2N(C(=O)OC(C)C)C[C@@H]1C" What is its recorded pIC50?
5.00 to 6.00

Consider the compound shown here: "CC(=O)N1c2ccc(-c3cnn(C4COC4)c3)cc2N(C(=O)Oc2ccncc2)C[C@@H]1C" What is its recorded pIC50?
> 7.00

Consider the compound shown here: "COc1cscc1C(=O)N1C[C@H](C)N(C(C)=O)c2ccccc21" What is its recorded pIC50?
< 5.00

Consider the compound shown here: "CC(C)OC(=O)N1C[C@H](C)N(C(=O)C2CC2)c2ccc(-c3ccc(N4CCS(=O)(=O)CC4)cc3)cc21" What is its recorded pIC50?
6.00 to 7.00

Consider the compound shown here: "CC(=O)N1c2ccccc2N(S(=O)(=O)c2ccc(Cl)cc2)C[C@@H]1C" What is its recorded pIC50?
< 5.00

Consider the compound shown here: "CC(=O)N1c2ccc(-c3cnn(C4CC4)c3)cc2N(C(=O)Oc2ccc(Cl)cc2)C[C@@H]1C" What is its recorded pIC50?
> 7.00

Consider the compound shown here: "CC(=O)N1c2ccc(-c3ccc(S(=O)(=O)N(C)C)c(C)c3)cc2N(C(=O)OC(C)C)C[C@@H]1C" What is its recorded pIC50?
6.00 to 7.00

Consider the compound shown here: "C[C@H]1CN(C(=O)OC2CCCC2)c2cc(-c3cnn(C4CC4)c3)ccc2N1C(=O)C1CC1" What is its recorded pIC50?
6.00 to 7.00

Consider the compound shown here: "CC(=O)N1c2ccc(-c3cccc(S(=O)(=O)N(C)C)c3)cc2N(C(=O)c2ccco2)C[C@@H]1C" What is its recorded pIC50?
6.00 to 7.00

Consider the compound shown here: "CC(=O)N1c2ccc(-c3cnn(C4CNC4)c3)cc2N(C(=O)OC(C)C)C[C@@H]1C" What is its recorded pIC50?
6.00 to 7.00

* * *

Field: pIC50. Provide a value for each of the compounds that follow.
measurementTarget: BRD4 BD1 (Homo sapiens)
testMethodNotes: AlphaScreen binding assay, BRD4 Bromodomain 1
pIC50: −log10 of the molar value.

Consider the compound shown here: "CC(=O)N1c2ccc(-c3ccc(S(C)(=O)=O)cc3)cc2N(C(=O)c2ccc(S(C)(=O)=O)o2)C[C@@H]1C" What is its recorded pIC50?
< 5.00

Consider the compound shown here: "CCOC(=O)N1C[C@H](C)N(C(C)=O)c2ccc(-c3cccc(S(=O)(=O)NC)c3)cc21" What is its recorded pIC50?
5.00 to 6.00

Consider the compound shown here: "COC(=O)N1c2ccc(-c3cnn(C4CNC4)c3)cc2N(C(=O)OC(C)C)C[C@@H]1C" What is its recorded pIC50?
5.00 to 6.00

Consider the compound shown here: "CCOC(=O)N1C[C@H](C)N(C(C)=O)c2ccc(-c3ccc(S(=O)(=O)CC4CC4)cc3)cc21" What is its recorded pIC50?
5.00 to 6.00

Consider the compound shown here: "CC(=O)N1c2ccc(-c3cnn(C4CNC4)c3)cc2N(C(=O)Oc2cccnc2)C[C@@H]1C" What is its recorded pIC50?
6.00 to 7.00

Consider the compound shown here: "CC(=O)N1c2ccc(-c3ccc4c(c3)N(S(C)(=O)=O)CCC4)cc2N(C(=O)C2CC2)C[C@@H]1C" What is its recorded pIC50?
6.00 to 7.00

Consider the compound shown here: "CCC(=O)N1c2ccc(-c3ccc(S(C)(=O)=O)cc3)cc2N(C(=O)c2ccco2)C[C@@H]1C" What is its recorded pIC50?
5.00 to 6.00

Consider the compound shown here: "CC(=O)N1c2ccc(-c3ccc(NS(C)(=O)=O)cc3)cc2N(C(=O)Oc2cccnc2)C[C@@H]1C" What is its recorded pIC50?
5.00 to 6.00

Consider the compound shown here: CC(=O)N1c2ccc(-c3cnn(C4CCNC(=O)C4)c3)cc2N(C(=O)C2CC2)C[C@@H]1C (some centres unmarked) What is its recorded pIC50?
6.00 to 7.00

Consider the compound shown here: "CC(=O)N1c2ccc(-c3ccc(S(C)(=O)=O)cc3)cc2N(C(=O)OC2CCCC2)C[C@@H]1C" What is its recorded pIC50?
5.00 to 6.00

Consider the compound shown here: "CC(=O)N1c2ccccc2N(C(=O)c2cc3ccccn3n2)C[C@@H]1C" What is its recorded pIC50?
< 5.00

Consider the compound shown here: "CC(=O)N1c2ccc(-c3ccc4nnc(C)n4c3)cc2N(C(=O)c2ccco2)C[C@@H]1C" What is its recorded pIC50?
5.00 to 6.00

Consider the compound shown here: "CC(C)OC(=O)N1C[C@H](C)N(C(=O)C2CC2)c2ccc(-c3cnn(CCNS(C)(=O)=O)c3)cc21" What is its recorded pIC50?
5.00 to 6.00

Consider the compound shown here: "CC(=O)N1c2ccc(-c3cnn(C4CC4)c3)cc2N(c2nn(C)c3cccc(F)c23)C[C@@H]1C" What is its recorded pIC50?
6.00 to 7.00

Consider the compound shown here: "CC(=O)N1c2ccccc2N(C(=O)CC2CCOCC2)C[C@@H]1C" What is its recorded pIC50?
< 5.00

Consider the compound shown here: "CNC(=O)c1ccc(-c2ccc3c(c2)N(C(=O)c2ccco2)C[C@H](C)N3C(C)=O)cn1" What is its recorded pIC50?
5.00 to 6.00

Consider the compound shown here: "CC(=O)N1c2ccc(-c3ccccn3)cc2N(C(=O)c2ccco2)C[C@@H]1C" What is its recorded pIC50?
5.00 to 6.00

Consider the compound shown here: "COC(=O)N1c2ccc(-c3ccc(C(=O)N4CC[C@@H](O)C4)cc3)cc2N(C(=O)OC(C)C)C[C@@H]1C" What is its recorded pIC50?
6.00 to 7.00

Consider the compound shown here: "CCOC(=O)N1C[C@H](C)N(C(C)=O)c2ccc(-c3ccc(S(=O)(=O)NCCO)cc3)cc21" What is its recorded pIC50?
5.00 to 6.00

Consider the compound shown here: "CC(=O)N1c2ccc(-c3ccc(C(=O)N4CC(O)C4)cc3)cc2N(C(=O)OC(C)C)C[C@@H]1C" What is its recorded pIC50?
6.00 to 7.00

Consider the compound shown here: CC(=O)N1c2ccc(-c3cnn(CC4CC4(F)F)c3)cc2N(C(=O)C2CC2)C[C@@H]1C (some centres unmarked) What is its recorded pIC50?
6.00 to 7.00

Consider the compound shown here: "CC(C)OC(=O)N1C[C@H](C)N(C(=O)C2CC2)c2ccc(-c3cnn(CCn4ccnc4)c3)cc21" What is its recorded pIC50?
6.00 to 7.00

Consider the compound shown here: "CC(=O)N1c2ccc(-c3cnn(C4CC4)c3)cc2N(C(=O)Oc2ccc(F)cc2F)C[C@@H]1C" What is its recorded pIC50?
6.00 to 7.00

Consider the compound shown here: "CC(=O)Nc1cc2c(cc1-c1cnn(CC(C)(C)O)c1)N(C(=O)OC(C)C)C[C@H](C)N2C(C)=O" What is its recorded pIC50?
6.00 to 7.00

Consider the compound shown here: "CC(=O)N1c2ccc(-c3cnn(C4CNC4)c3)cc2N(C(=O)OC2CC(F)(F)C2)C[C@@H]1C" What is its recorded pIC50?
6.00 to 7.00

Consider the compound shown here: "C[C@H]1CN(C(=O)C2CC2)c2cc(-c3cn(C)nn3)ccc2N1C(=O)C1CC1" What is its recorded pIC50?
5.00 to 6.00

Consider the compound shown here: "CC(=O)N1c2ccc(-c3ccc4c(c3)CCN4S(C)(=O)=O)cc2N(C(=O)Oc2ccc(F)cc2)C[C@@H]1C" What is its recorded pIC50?
6.00 to 7.00

Consider the compound shown here: "CC(=O)N1c2ccc(-c3cccc(S(=O)(=O)NCCO)c3)cc2N(C(=O)OC2CCCCC2)C[C@@H]1C" What is its recorded pIC50?
6.00 to 7.00

Consider the compound shown here: "CC(=O)N1c2ccc(-c3cnn(C)n3)cc2N(C(=O)c2ccco2)C[C@@H]1C" What is its recorded pIC50?
6.00 to 7.00
